Entry source: patent US10213415B2

Catalogue of pKi readings, one per entry.
# ASSAY TARGET: human delta subtype 2 opioid receptor (Homo sapiens)
# Sequence (P41143 whole entry): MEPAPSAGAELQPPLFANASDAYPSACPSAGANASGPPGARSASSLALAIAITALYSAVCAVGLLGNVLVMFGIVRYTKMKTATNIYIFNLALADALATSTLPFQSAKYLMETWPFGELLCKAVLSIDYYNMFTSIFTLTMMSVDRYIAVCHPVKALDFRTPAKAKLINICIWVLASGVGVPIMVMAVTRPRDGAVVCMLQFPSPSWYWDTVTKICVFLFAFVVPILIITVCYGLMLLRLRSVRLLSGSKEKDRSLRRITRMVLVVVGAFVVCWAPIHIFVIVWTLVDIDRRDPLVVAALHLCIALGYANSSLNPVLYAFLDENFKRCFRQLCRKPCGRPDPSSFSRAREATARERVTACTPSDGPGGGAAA
# MEASUREMENT PROTOCOL: Human Delta Opioid Receptor Binding Assay (CHO membranes, 3H-Naltrindole)
# APPLIED CONDITIONS: read-out: hKi δ
Please report pKi as the negative decimal logarithm of the molar concentration, giving only the number.

[
  {
    "CPD SMILES": "Cc1cc(O)cc(C)c1C[C@H](N)C(=O)N(C(C)C)[C@@H](Cc1cccc(C(N)=O)c1)c1nc(-c2ccccc2)c[nH]1",
    "ASSAY TARGET": "human delta subtype 2 opioid receptor (Homo sapiens)",
    "pKi": 6.74
  }
]

The measured pKi associated with Cc1cc(C(N)=O)cc(C)c1C[C@H](N)C(=O)N(Cc1ccccc1)[C@@H](COCc1ccccc1)c1nc(-c2ccccc2)c[nH]1 reads 5.96

// recorded pKi for Cc1cc(O)cc(C)c1C[C@H](N)C(=O)N(Cc1nc(-c2ccc(F)cc2F)c(C)[nH]1)C(C)C : 6.99

The compound listed as Cc1cc(C(N)=O)cc(C)c1C[C@H](N)C(=O)N(Cc1ccccc1)[C@@H](C)c1nc(-c2ccc(Cl)cc2)c(C)[nH]1 has a reported pKi of 7.15

In plain terms, Cc1cc(O)cc(C)c1C[C@H](N)C(=O)N(Cc1nc(-c2cccc3ccccc23)c(C)[nH]1)C(C)C has a documented pKi of 6.42

====

Entries and their measured EC50 follow.
# ASSAY TARGET: delta opioid receptor (NG108-15 cell membranes) (Mus musculus)
# Construct: NG108-15 cell membranes were purchased from Applied Cell Sciences (Rockville, Md.); host or cells: NG108-15 cells (membranes purchased)
# Sequence (P32300 whole entry): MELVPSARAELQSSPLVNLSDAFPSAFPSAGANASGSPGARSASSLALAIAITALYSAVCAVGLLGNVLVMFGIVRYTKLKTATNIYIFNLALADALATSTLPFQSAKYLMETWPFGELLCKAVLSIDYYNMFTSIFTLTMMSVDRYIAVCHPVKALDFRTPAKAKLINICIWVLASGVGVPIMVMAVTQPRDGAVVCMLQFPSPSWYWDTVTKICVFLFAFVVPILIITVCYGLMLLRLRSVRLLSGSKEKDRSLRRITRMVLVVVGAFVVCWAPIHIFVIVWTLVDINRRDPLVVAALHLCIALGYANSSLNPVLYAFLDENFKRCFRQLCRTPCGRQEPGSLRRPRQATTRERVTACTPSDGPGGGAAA
# MEASUREMENT PROTOCOL: Delta Opioid Receptor Functional Assay: [35S]GTPγS Binding in NG108-15 Cell Membranes, Version 2
# Assay type: biochemical
# APPLIED CONDITIONS: NG108-15 cell membranes, [35S]GTPγS, version 2; read-out: DOR GTP-binding Assay_v2_ EC50
# Protocol: NG108-15 cell membranes were purchased from Applied Cell Sciences (Rockville, Md.). 8 mg/ml of membrane protein suspended in 10 mM TRIS-HC pH 7.2, 2 mM EDTA, 10% sucrose. Membranes were maintained at 4-8° C. A portion (1 ml) of membranes was added into 10 ml cold binding assay buffer. […] The pellet membranes (75 μg/ml) were preincubated with SPA (10 mg/ml) at 25° C. for 45 min in the assay buffer. […] The data were analyzed on a Top counter. […]
Answer format: numeric, nM implied, no suffix.

Past entries and their recorded results:
[
  {
    "CPD SMILES": "Cc1cc(C(N)=O)cc(C)c1C[C@H](N)C(=O)N(Cc1ccc(C(=O)O)cc1)[C@@H](C)c1nc(-c2ccccc2)c[nH]1",
    "EC50 [nM]": 1.4
  },
  {
    "CPD SMILES": "COc1ccc(CN(C(=O)[C@@H](N)Cc2c(C)cc(O)cc2C)[C@@H](C)c2nc(-c3ccccc3)c[nH]2)c2ccccc12",
    "EC50 [nM]": 44
  },
  {
    "CPD SMILES": "COc1ccc(CN(C(=O)[C@@H](N)Cc2c(C)cc(C(N)=O)cc2C)[C@@H](C)c2nc(-c3ccccc3)c[nH]2)cc1C(=O)NCCO",
    "EC50 [nM]": 2.3
  },
  {
    "CPD SMILES": "Cc1cc(O)cc(C)c1C[C@H](N)C(=O)N(Cc1ccnc2ccccc12)[C@@H](C)c1nc(-c2ccccc2)c[nH]1",
    "EC50 [nM]": 0.3
  },
  {
    "CPD SMILES": "COC(=O)c1ccc(CN(C(=O)[C@@H](N)Cc2c(C)cc(C(N)=O)cc2C)[C@@H](C)c2nc(-c3ccccc3)c[nH]2)cc1",
    "EC50 [nM]": 27
  }
]

EC50 reading for COc1ccc(CN(C(=O)[C@@H](N)Cc2c(C)cc(C(N)=O)cc2C)[C@@H](C)c2nc(-c3ccccc3)c[nH]2)cc1C(=O)NC1CC1 : 32

Reported EC50 of Cc1cc(C(N)=O)cc(C)c1C[C@H](N)C(=O)N(Cc1ccc(C(=O)O)nc1)[C@@H](C)c1nc(-c2ccccc2)c[nH]1 : 6.27

Record summary for COC(=O)c1cc(CN(C(=O)[C@@H](N)Cc2c(C)cc(C(N)=O)cc2C)[C@@H](C)c2nc(-c3ccccc3)c[nH]2)ccc1OC : reported EC50 = 1.3

Recorded result, COc1ccc(CN(C(=O)[C@@H](N)Cc2c(C)cc(C(N)=O)cc2C)[C@@H](C)c2nc(-c3ccccc3)c[nH]2)cc1C(=O)N1CCOCC1 , EC50: 7.9

Briefly, EC50 measured for COC(=O)c1cccc(CN(C(=O)[C@@H](N)Cc2c(C)cc(C(N)=O)cc2C)[C@@H](C)c2nc(-c3ccccc3)c[nH]2)n1 : 5.03

Please fill in: EC50 reported for COC(=O)c1cc(CN(C(=O)[C@@H](N)Cc2c(C)cc(C(N)=O)cc2C)[C@@H](C)c2nc(-c3ccccc3)c[nH]2)ccn1 = 1.02
